# Condition: in methanol, 313.25 K
Parameter: solubility (mole fraction)

>  <Structure As Smiles>
O=P(Oc1ccccc1)(Oc1ccccc1)Oc1ccc(OP(=O)(Oc2ccccc2)Oc2ccccc2)cc1

>  <Parameter>
solubility (mole fraction)

>  <Reported Measurement>
0.00205

$$$$

---

# Condition: in acetonitrile, 313.25 K
Parameter: solubility (mole fraction)

>  <Structure As Smiles>
O=P(Oc1ccccc1)(Oc1ccccc1)Oc1ccc(OP(=O)(Oc2ccccc2)Oc2ccccc2)cc1

>  <Reported Measurement>
0.00807

$$$$

---

# Condition: in methyl acetate, 308.15 K

>  <Structure As Smiles>
O=P(Oc1ccccc1)(Oc1ccccc1)Oc1ccc(OP(=O)(Oc2ccccc2)Oc2ccccc2)cc1

>  <solubility (mole fraction)>
0.0144

$$$$

---

# Condition: in ethyl acetate, 298.15 K
Parameter: solubility (mole fraction)

>  <Structure As Smiles>
O=P(Oc1ccccc1)(Oc1ccccc1)Oc1ccc(OP(=O)(Oc2ccccc2)Oc2ccccc2)cc1

>  <Parameter>
solubility (mole fraction)

>  <Reported Measurement>
0.00605

$$$$

---

# Condition: in diethyl ether, 298.15 K

>  <Structure As Smiles>
O=P(Oc1ccccc1)(Oc1ccccc1)Oc1ccc(OP(=O)(Oc2ccccc2)Oc2ccccc2)cc1

>  <solubility (mole fraction)>
0.00101

$$$$

---

# Condition: in acetonitrile, 328.15 K
Parameter: solubility (mole fraction)

>  <Structure As Smiles>
O=P(Oc1ccccc1)(Oc1ccccc1)Oc1ccc(OP(=O)(Oc2ccccc2)Oc2ccccc2)cc1

>  <Reported Measurement>
0.0246

$$$$

---

# Condition: in methyl acetate, 293.25 K

>  <Structure As Smiles>
O=P(Oc1ccccc1)(Oc1ccccc1)Oc1ccc(OP(=O)(Oc2ccccc2)Oc2ccccc2)cc1

>  <solubility (mole fraction)>
0.00522

$$$$

---

# Condition: in toluene, 293.15 K

>  <Structure As Smiles>
O=P(Oc1ccccc1)(Oc1ccccc1)Oc1ccc(OP(=O)(Oc2ccccc2)Oc2ccccc2)cc1

>  <solubility (mole fraction)>
0.00378

$$$$

---

# Condition: in methanol, 298.15 K
Parameter: solubility (mole fraction)

>  <Structure As Smiles>
O=P(Oc1ccccc1)(Oc1ccccc1)Oc1ccc(OP(=O)(Oc2ccccc2)Oc2ccccc2)cc1

>  <Parameter>
solubility (mole fraction)

>  <Reported Measurement>
0.0004

$$$$

---

# Condition: in ethanol, 333.25 K
Parameter: solubility (mole fraction)

>  <Structure As Smiles>
O=P(Oc1ccccc1)(Oc1ccccc1)Oc1ccc(OP(=O)(Oc2ccccc2)Oc2ccccc2)cc1

>  <Parameter>
solubility (mole fraction)

>  <Reported Measurement>
0.0115

$$$$

---

# Condition: in ethanol, 313.25 K

>  <Structure As Smiles>
O=P(Oc1ccccc1)(Oc1ccccc1)Oc1ccc(OP(=O)(Oc2ccccc2)Oc2ccccc2)cc1

>  <solubility (mole fraction)>
0.00238

$$$$

---

# Condition: in acetonitrile, 293.25 K
Parameter: solubility (mole fraction)

>  <Structure As Smiles>
O=P(Oc1ccccc1)(Oc1ccccc1)Oc1ccc(OP(=O)(Oc2ccccc2)Oc2ccccc2)cc1

>  <Parameter>
solubility (mole fraction)

>  <Reported Measurement>
0.00142

$$$$

---

# Condition: in ethanol, 293.25 K

>  <Structure As Smiles>
O=P(Oc1ccccc1)(Oc1ccccc1)Oc1ccc(OP(=O)(Oc2ccccc2)Oc2ccccc2)cc1

>  <solubility (mole fraction)>
0.00037

$$$$

---

# Condition: in n-propanol, 293.15 K
Parameter: solubility (mole fraction)

>  <Structure As Smiles>
O=P(Oc1ccccc1)(Oc1ccccc1)Oc1ccc(OP(=O)(Oc2ccccc2)Oc2ccccc2)cc1

>  <Parameter>
solubility (mole fraction)

>  <Reported Measurement>
0.00025

$$$$

---

# Condition: in isopropanol, 328.15 K
Parameter: solubility (mole fraction)

>  <Structure As Smiles>
O=P(Oc1ccccc1)(Oc1ccccc1)Oc1ccc(OP(=O)(Oc2ccccc2)Oc2ccccc2)cc1

>  <Reported Measurement>
0.00544

$$$$

---

# Condition: in ethyl acetate, 323.25 K
Parameter: solubility (mole fraction)

>  <Structure As Smiles>
O=P(Oc1ccccc1)(Oc1ccccc1)Oc1ccc(OP(=O)(Oc2ccccc2)Oc2ccccc2)cc1

>  <Parameter>
solubility (mole fraction)

>  <Reported Measurement>
0.0308

$$$$

---

# Condition: in isopropanol, 308.15 K

>  <Structure As Smiles>
O=P(Oc1ccccc1)(Oc1ccccc1)Oc1ccc(OP(=O)(Oc2ccccc2)Oc2ccccc2)cc1

>  <solubility (mole fraction)>
0.00071

$$$$

---

# Condition: in n-propanol, 323.25 K
Parameter: solubility (mole fraction)

>  <Structure As Smiles>
O=P(Oc1ccccc1)(Oc1ccccc1)Oc1ccc(OP(=O)(Oc2ccccc2)Oc2ccccc2)cc1

>  <Reported Measurement>
0.00558

$$$$
